Cited source: patent US8168592B2

Provide the reported AUC0-t of each item.
- ASSAY_PROTOCOL: rat pharmacokinetic studies
- CONDITION_DESCRIPTION: rat, IV, 2 mg/kg; mean, n = 3
PEG = not defined here

Output AUC0-t of SEQ ID NO: 15: 20 kDa PEG conjugate of SEQ ID NO:7 (reductive alkylation) (Ac-WVTHRLAGLLSRSGGVVRK(20 kDa PEG)NFVPTDVGPFAF-NH2)
12940 ng·h/mL

Output AUC0-t of SEQ ID NO: 40: double glutamine analog PEGylated through amine linkage (Ac-WVTHQLAGLLSQSGGVVRK(PEG)NFVPTDVGPFAF-NH2; reading uncertain)
10651 ng·h/mL

Output AUC0-t of SEQ ID NO: 32: PEGylated R11Cit, R18Cit analog (product of SEQ ID NO:31) (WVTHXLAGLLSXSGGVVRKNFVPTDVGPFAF; PEGylated; citrulline at 11 and 18; CGRP peptide; MOD_RES (1)..(1): …ON; MISC_FEATURE (5)..(5): xaa=citrulline; MISC_FEATURE (12)..(12): xaa=citrulline; MISC_FEATURE (19)..(19): PEGylated; MOD_RES (31)..(31): AMIDATION)
40250 ng·h/mL

Output AUC0-t of SEQ ID NO: 26: PEGylated double homoarginine analog (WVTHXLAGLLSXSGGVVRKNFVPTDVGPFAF; PEGylated; homoarginine residues; CGRP peptide; MOD_RES (1)..(1): …ON; MISC_FEATURE (5)..(5): xaa=homoarginine; MISC_FEATURE (12)..(12): xaa=homoarginine; MISC_FEATURE (19)..(19): PEGylated; MOD_RES (31)..(31): AMIDATION)
24546 ng·h/mL
